All values here come from paper PMC7305236.

Hi there, I'd appreciate the recorded activation for every entry that follows.
Target: ACKR3 (Homo sapiens)
Sequence (P25106 whole entry): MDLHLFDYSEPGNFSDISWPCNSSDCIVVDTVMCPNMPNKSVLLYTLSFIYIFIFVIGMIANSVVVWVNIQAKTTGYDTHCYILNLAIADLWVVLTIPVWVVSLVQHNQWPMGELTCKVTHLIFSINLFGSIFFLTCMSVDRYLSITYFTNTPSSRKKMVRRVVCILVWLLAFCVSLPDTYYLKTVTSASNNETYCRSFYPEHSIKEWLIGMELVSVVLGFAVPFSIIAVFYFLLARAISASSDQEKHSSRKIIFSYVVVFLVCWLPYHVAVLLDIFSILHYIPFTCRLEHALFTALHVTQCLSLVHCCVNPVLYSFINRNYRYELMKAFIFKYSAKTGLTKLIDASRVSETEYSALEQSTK
Assay: cell-based
Parameters: dose or concentration left out as unconfirmed
Conditions: read-out: ACKR3 activity, ctrl+ = 100, Figure S2a; replicate 1
Answers are plain numbers, in %.

Solved entries:
[[record]]
compound = "C[C@H](NC(=O)CNC(=O)[C@@H](NC(=O)[C@H](Cc1ccccc1)NC(=O)CNC(=O)CNC(=O)[C@@H](N)Cc1ccccc1)[C@@H](C)O)C(=O)N[C@@H](CCCNC(=N)N)C(=O)N[C@@H](CCCCN)C(=O)N[C@@H](CO)C(=O)N[C@@H](C)C(=O)N[C@@H](CCCNC(=N)N)C(=O)N[C@@H](CCCCN)C(N)=O"
unit_name = "%"
numeric_readout = 19.7

[[record]]
compound = "CSCC[C@H](NC(=O)[C@H](Cc1ccccc1)NC(=O)CNC(=O)CNC(=O)[C@@H](N)Cc1ccc(O)cc1)C(=O)N[C@@H](CCCNC(=N)N)C(=O)N[C@@H](CCCNC(=N)N)C(=O)N[C@H](C(N)=O)C(C)C"
unit_name = "%"
numeric_readout = 111

[[record]]
compound = "CC[C@H](C)[C@H](NC(=O)[C@H](CCCNC(=N)N)NC(=O)[C@H](CCCNC(=N)N)NC(=O)[C@H](CC(C)C)NC(=O)[C@H](Cc1ccccc1)NC(=O)CNC(=O)CNC(=O)[C@@H](N)Cc1ccc(O)cc1)C(=O)N[C@@H](CCCNC(=N)N)C(=O)N1CCC[C@H]1C(=O)N[C@@H](CCCCN)C(=O)N[C@@H](CC(C)C)C(=O)N[C@@H](CCCCN)C(=O)O"
unit_name = "%"
numeric_readout = 136

[[record]]
compound = "NC(=O)[C@H](Cc1ccccc1)NC(=O)[C@H](Cc1c[nH]c2ccccc12)NC(=O)[C@@H]1CCCN1C(=O)[C@@H](N)Cc1ccc(O)cc1 [Endomorphin-1]"
unit_name = "%"
numeric_readout = 5.29


# context switch: different compound, same activation
// activation lookup, compound = `CC[C@H](C)[C@H](NC(=O)[C@H](CCCNC(=N)N)NC(=O)[C@H](CCCNC(=N)N)NC(=O)[C@H](CC(C)C)NC(=O)[C@H](Cc1ccccc1)NC(=O)CNC(=O)CNC(=O)[C@@H](N)Cc1ccc(O)cc1)C(=O)N[C@@H](CCCNC(=N)N)C(=O)N1CCC[C@H]1C(=O)N[C@@H](CCCCN)C(=O)N[C@@H](CC(C)C)C(=O)N[C@@H](CCCCN)C(=O)N[C@@H](Cc1c[nH]c2ccccc12)C(=O)N[C@@H](CC(=O)O)C(=O)N[C@@H](CC(N)=O)C(=O)N[C@@H](CCC(N)=O)C(=O)O` , result: 127

----------
Hi there, I'd appreciate the recorded activation for every entry that follows.
Target: ACKR2 (Homo sapiens, UniProt O00590)
Construct: expressed in transfected cells; host or cells: U87 cells (human glioblastoma)
Sequence (O00590 1-384): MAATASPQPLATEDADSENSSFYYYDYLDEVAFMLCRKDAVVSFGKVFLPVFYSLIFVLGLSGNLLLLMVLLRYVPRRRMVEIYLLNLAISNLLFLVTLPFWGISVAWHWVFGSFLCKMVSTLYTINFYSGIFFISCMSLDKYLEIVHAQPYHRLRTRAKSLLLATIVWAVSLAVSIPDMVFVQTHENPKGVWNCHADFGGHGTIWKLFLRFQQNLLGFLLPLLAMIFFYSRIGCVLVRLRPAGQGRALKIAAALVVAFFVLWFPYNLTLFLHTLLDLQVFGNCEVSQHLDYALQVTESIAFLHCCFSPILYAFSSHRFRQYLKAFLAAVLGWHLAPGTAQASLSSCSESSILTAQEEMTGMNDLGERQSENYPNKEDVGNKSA
Test: Figure S2a opioid peptide screen on chemokine receptors
Format: cell-based
Set-up: dose or concentration left out as unconfirmed
Conditions: replicate 2, read-out: ACKR2 activity, ctrl+ = 100
Starred links: 1 amine or outer side, 2 acyl side, 3 side chain; linkers in the order of their positions; H or OH if unused. Non-standard residues stand in square brackets, D forms with d. Residues, ends and D or L forms follow the SMILES beside them. X1 = N[C@@H](Cc1ccccc1)CN(CC(=O)[*:2])[*:1]
One number for each entry, in %.

Solved entries:
[[record]]
compound = "C[C@H](NC(=O)CNC(=O)[C@@H](NC(=O)[C@H](Cc1ccccc1)NC(=O)CNC(=O)CNC[C@@H](N)Cc1ccccc1)[C@@H](C)O)C(=O)N[C@@H](CCCNC(=N)N)C(=O)N[C@@H](CCCCN)C(=O)N[C@@H](CO)C(=O)N[C@@H](C)C(=O)N[C@@H](CCCNC(=N)N)C(=O)N[C@@H](CCCCN)C(N)=O [FG Nociceptin 1-13] (H-[X1]GFTGARKSARK-NH2)"
endpoint = "activation"
numeric_readout = 36.5

[[record]]
compound = "C[C@H](NC(=O)CNC(=O)[C@@H](NC(=O)[C@H](Cc1ccccc1)NC(=O)CNC(=O)CNC(=O)[C@@H](N)Cc1ccccc1)[C@@H](C)O)C(=O)N[C@@H](CCCNC(=N)N)C(=O)N[C@@H](CCCCN)C(=O)N[C@@H](CO)C(=O)N[C@@H](C)C(=O)N[C@@H](CCCNC(=N)N)C(=O)N[C@@H](CCCCN)C(N)=O [Nociceptin 1-13]"
endpoint = "activation"
numeric_readout = -2.02

[[record]]
compound = "CSCC[C@H](NC(=O)[C@H](Cc1ccccc1)NC(=O)CNC(=O)CNC(=O)[C@@H](N)Cc1ccc(O)cc1)C(=O)N[C@@H](CCCNC(=N)N)C(=O)N[C@@H](CCCNC(=N)N)C(=O)N[C@H](C(N)=O)C(C)C [Adrenorphin]"
endpoint = "activation"
numeric_readout = -28.7


# context switch: different compound, same activation
Noted activation for CC(C)C[C@H](NC(=O)[C@H](CCCCN)NC(=O)[C@H](CCCN=C(N)N)NC(=O)[C@H](C)NC(=O)[C@H](CO)NC(=O)[C@H](CCCCN)NC(=O)[C@H](CCCN=C(N)N)NC(=O)[C@H](C)NC(=O)CNC(=O)[C@@H](NC(=O)[C@H](Cc1ccccc1)NC(=O)CNC(=O)CNC(=O)[C@@H](N)Cc1ccccc1)[C@@H](C)O)C(=O)N[C@@H](C)C(=O)N[C@@H](CC(N)=O)C(=O)N[C@@H](CCC(N)=O)C(=O)O [Nociceptin] , tested on ACKR2 (Homo sapiens, UniProt O00590): -66.1

----------
Target: U87 ACKR3 (Homo sapiens, UniProt P25106)
Construct: expressed in transfected cells
Test: Figure 6c source data, U87 ACKR3
Assay type: cell-based
Conditions: Figure 6c inset, U87 ACKR3 + labelled peptide, titrated agonist not given, replicate 1
endpoint: pEC50
Give bare numbers, as −log10 of the molar value.

// pEC50 lookup, substance = H-MRRKFGGF-NH2 [LIH inverse] , result: 7.19

----------
Target: CCR6 (Homo sapiens)
Construct: expressed in transfected cells
Sequence (P51684 whole entry): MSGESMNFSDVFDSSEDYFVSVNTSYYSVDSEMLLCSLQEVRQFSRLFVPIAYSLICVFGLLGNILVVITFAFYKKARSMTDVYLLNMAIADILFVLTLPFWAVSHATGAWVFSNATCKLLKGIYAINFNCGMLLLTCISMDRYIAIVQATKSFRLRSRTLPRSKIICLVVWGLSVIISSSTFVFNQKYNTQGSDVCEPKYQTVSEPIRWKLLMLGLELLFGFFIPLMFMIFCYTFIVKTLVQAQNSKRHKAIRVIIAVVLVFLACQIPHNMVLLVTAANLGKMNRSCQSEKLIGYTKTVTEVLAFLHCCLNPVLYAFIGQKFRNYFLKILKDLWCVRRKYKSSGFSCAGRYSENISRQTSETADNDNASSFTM
Assay: Figure S2a opioid peptide screen on chemokine receptors
Format: cell-based
Design: dose or concentration left out as unconfirmed
Conditions: replicate 1, read-out: CCR6 activity, ctrl+ = 100
endpoint: activation (%)
Answers are plain numbers, in %.

[[record]]
mol = "CC(C)C[C@H](NC(=O)[C@H](CCCCN)NC(=O)[C@H](CCCN=C(N)N)NC(=O)[C@H](C)NC(=O)[C@H](CO)NC(=O)[C@H](CCCCN)NC(=O)[C@H](CCCN=C(N)N)NC(=O)[C@H](C)NC(=O)CNC(=O)[C@@H](NC(=O)[C@H](Cc1ccccc1)NC(=O)CNC(=O)CNC(=O)[C@@H](N)Cc1ccccc1)[C@@H](C)O)C(=O)N[C@@H](C)C(=O)N[C@@H](CC(N)=O)C(=O)N[C@@H](CCC(N)=O)C(=O)O"
endpoint = "activation"
numeric_readout = -0.76

[[record]]
mol = "CC[C@H](C)[C@H](NC(=O)[C@H](CCCNC(=N)N)NC(=O)[C@H](CCCNC(=N)N)NC(=O)[C@H](CC(C)C)NC(=O)[C@H](Cc1ccccc1)NC(=O)CNC(=O)CN)C(=O)N[C@@H](CCCNC(=N)N)C(=O)N1CCC[C@H]1C(=O)N[C@@H](CCCCN)C(=O)N[C@@H](CC(C)C)C(=O)N[C@@H](CCCCN)C(=O)N[C@@H](Cc1c[nH]c2ccccc12)C(=O)N[C@@H](CC(=O)O)C(=O)N[C@@H](CC(N)=O)C(=O)N[C@@H](CCC(N)=O)C(=O)O"
endpoint = "activation"
numeric_readout = -0.438


// activation lookup, compound = `CC(C)C[C@H](NC(=O)[C@H](Cc1ccccc1)NC(=O)CNC(=O)CNC(=O)[C@@H](N)Cc1ccc(O)cc1)C(=O)N[C@@H](CCCN=C(N)N)C(=O)N[C@@H](CCCN=C(N)N)C(=O)N[C@@H](CCC(N)=O)C(=O)N[C@@H](Cc1ccccc1)C(=O)N[C@@H](CCCCN)C(=O)N[C@H](C(=O)N[C@H](C(=O)N[C@H](C(=O)O)[C@@H](C)O)C(C)C)C(C)C` , result: -0.194
